Measurement record for 5-hydroxytryptamine receptor 2A (Rattus norvegicus, UniProt P14842); quantity recorded: Ki.
Your answer is read as nM, so omit the unit and give the number.

Cn1c(=O)c2c(nc3n(CCCN4CCN(c5ccccc5)CC4)c(-c4ccccc4)cn23)n(C)c1=O ... 813

Now turn to the next compound.
Reported 5-hydroxytryptamine receptor 2A (Rattus norvegicus, UniProt P14842) Ki for item Cn1c(=O)c2c(nc3n(CCCN4CCN(c5cccc(Cl)c5)CC4)ccn23)n(C)c1=O was 91.5

====

tested on: Mus musculus; assay: Agonist activity at 5HT1A receptor in Swiss albino mouse assessed as decrease in rectal temperature at 10 mg/kg, ip after 60 mins; assay type: functional, organism-based; set-up: dose 10 mg/kg
MEASURED ATTRIBUTE: deltaT (°C)
Your answer is read as °C, so omit the unit and give the number.

Take a look at these entries with their results.
COc1ccccc1N1CCN(CCCn2ccn3c4c(=O)n(C)c(=O)n(C)c4nc23)CC1 ... -0.6
Cc1cn2c3c(=O)n(C)c(=O)n(C)c3nc2n1CCCN1CCN(c2cccc(Cl)c2)CC1 ... -0.7
COc1ccccc1N1CCN(CCCn2c(-c3ccccc3)cn3c4c(=O)n(C)c(=O)n(C)c4nc23)CC1 ... -0.6
Cn1c(=O)c2c(nc3n(CCCN4CCN(c5ccccc5)CC4)ccn23)n(C)c1=O ... -0.4

Now turn to the next compound.
Entry COc1ccccc1N1CCN(CCCn2c(C)cn3c4c(=O)n(C)c(=O)n(C)c4nc23)CC1 , deltaT reported as -0.5

====

test system: Mus musculus; test: Agonist activity at 5HT1A receptor in Swiss albino mouse assessed as decrease in rectal temperature at 10 mg/kg, ip after 90 mins; type: functional, organism-based; design: dose 10 mg/kg
MEASURED ATTRIBUTE: deltaT

Take a look at these entries with their results.
COc1ccccc1N1CCN(CCCn2c(-c3ccccc3)cn3c4c(=O)n(C)c(=O)n(C)c4nc23)CC1 ... -0.6 °C
COc1ccccc1N1CCN(CCCn2ccn3c4c(=O)n(C)c(=O)n(C)c4nc23)CC1 ... -0.3 °C
COc1ccccc1N1CCN(CCCn2c(C)cn3c4c(=O)n(C)c(=O)n(C)c4nc23)CC1 ... -0.6 °C

Entry Cn1c(=O)c2c(nc3n(CCCN4CCN(c5ccccc5)CC4)ccn23)n(C)c1=O , deltaT reported as -0.4 °C

Entry Cc1cn2c3c(=O)n(C)c(=O)n(C)c3nc2n1CCCN1CCN(c2cccc(Cl)c2)CC1 , deltaT reported as -0.8 °C

====

tested on: Mus musculus; assay: Agonist activity at 5HT1A receptor in Swiss albino mouse assessed as decrease in rectal temperature at 5 mg/kg, ip after 120 mins; assay type: functional, organism-based; parameters: dose 5 mg/kg
MEASURED ATTRIBUTE: deltaT
Hi, when you answer, please include the unit after the number. Thanks!

Cc1cn2c3c(=O)n(C)c(=O)n(C)c3nc2n1CCCN1CCN(c2cccc(Cl)c2)CC1 ... -0.1 °C
COc1ccccc1N1CCN(CCCn2c(-c3ccccc3)cn3c4c(=O)n(C)c(=O)n(C)c4nc23)CC1 ... 0 °C
COc1ccccc1N1CCN(CCCn2c(C)cn3c4c(=O)n(C)c(=O)n(C)c4nc23)CC1 ... -0.1 °C

Entry Cn1c(=O)c2c(nc3n(CCCN4CCN(c5ccccc5)CC4)ccn23)n(C)c1=O , deltaT reported as 0 °C
